SYSTEM: Rac GTPase-activating protein 1 (Homo sapiens)
TEST_DESCRIPTION: blockers of MgcRacGAP-driven Rac1 GTP hydrolysis – biochemical, ADP Hunter fluorescence, primary and confirmatory, confirmation (AID 624330);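 note: fluorescence reports GDP produced by GAP-driven GTP hydrolysis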
PROTOCOL_CONDITIONS: MgcRacGAP-stimulated Rac1 GTP hydrolysis, at 30 µM, stronger effect = higher value, GST-tagged Rac1 F28L mutant substrate
Hit rate of the full screen: of about 340,000 compounds, about 2,100 (0.62%) were called active. The list is a sample of the results. Measured potencies and affinities stand elsewhere.
Item-by-item account of inhibition
Your answer should be a plain number; it is taken to be in %.

>  <COMPOUND>
CCCc1cc(=O)[nH]c(SCC(=O)c2cc(C)n(CC3CCCO3)c2C)n1 (stereo unspecified)

>  <UNIT_ABBREVIATION>
%

>  <TEST_RESULT>
4.29

$$$$
>  <COMPOUND>
COc1ccc(-c2[nH]ncc2-c2ccc(Cl)cc2)c(O)c1

>  <UNIT_ABBREVIATION>
%

>  <TEST_RESULT>
11.8

$$$$
>  <COMPOUND>
CN(C1=NC(=O)C(CC(=O)O)S1)c1ccc(O)cc1 (stereo unspecified)

>  <UNIT_ABBREVIATION>
%

>  <TEST_RESULT>
2.49

$$$$
>  <COMPOUND>
O=C(Cc1ccccc1)Nc1ccc(C(=O)Nc2ccc(O)cc2)cc1

>  <UNIT_ABBREVIATION>
%

>  <TEST_RESULT>
24.4

$$$$

Problem: Give recorded inhibition. C=CCc1ccc(OCCCCN2CC(C)OC(C)C2)c(OC)c1 (stereo unspecified)
Result: 16.2

Problem: Give recorded inhibition. CCOc1ccc(NC(=O)C(C)Oc2ccccc2C(=O)Nc2ccc(C)c(Cl)c2)cc1 (stereo unspecified)
Result: 5.67

Problem: Give recorded inhibition. CC(=O)Nc1ccc(N=NN2CCOCC2)cc1
Result: 4.54

Problem: Give recorded inhibition. O=C(CNC(=O)c1ccncc1)N/N=C/c1cc(Br)ccc1O
Result: 3.51

Problem: Give recorded inhibition. CC(=O)C[C@H]1c2cc(C(F)(F)F)ccc2S(=O)(=O)N1c1ccc(N(C)C)cc1
Result: 16.3

Problem: Give recorded inhibition. Cc1ccc[n+](CC(=O)Nc2ccc(C)c(C)c2)c1
Result: -1.74

Problem: Give recorded inhibition. O=C(NCc1ccc2c(c1)OCO2)c1cc(-c2ccccc2)c(N2CCOCC2)s1
Result: 11.5

Problem: Give recorded inhibition. O=C(COC(=O)COc1ccccc1)NCc1ccco1
Result: 5.42

Problem: Give recorded inhibition. COc1ccc(OCC(=O)OCC(=O)NCc2ccco2)cc1
Result: 5.26

Problem: Give recorded inhibition. CN(C(=O)COc1ccccc1)c1ccc([N+](=O)[O-])cc1
Result: 7.5

Problem: Give recorded inhibition. COc1cccc(/C=N/NC(=O)CNC(=O)c2cccnc2)c1O
Result: 5.08

----------
SYSTEM: Rac GTPase-activating protein 1 (Homo sapiens) (UniProt Q9H0H5)
Sequence (Q9H0H5 whole entry, looked up): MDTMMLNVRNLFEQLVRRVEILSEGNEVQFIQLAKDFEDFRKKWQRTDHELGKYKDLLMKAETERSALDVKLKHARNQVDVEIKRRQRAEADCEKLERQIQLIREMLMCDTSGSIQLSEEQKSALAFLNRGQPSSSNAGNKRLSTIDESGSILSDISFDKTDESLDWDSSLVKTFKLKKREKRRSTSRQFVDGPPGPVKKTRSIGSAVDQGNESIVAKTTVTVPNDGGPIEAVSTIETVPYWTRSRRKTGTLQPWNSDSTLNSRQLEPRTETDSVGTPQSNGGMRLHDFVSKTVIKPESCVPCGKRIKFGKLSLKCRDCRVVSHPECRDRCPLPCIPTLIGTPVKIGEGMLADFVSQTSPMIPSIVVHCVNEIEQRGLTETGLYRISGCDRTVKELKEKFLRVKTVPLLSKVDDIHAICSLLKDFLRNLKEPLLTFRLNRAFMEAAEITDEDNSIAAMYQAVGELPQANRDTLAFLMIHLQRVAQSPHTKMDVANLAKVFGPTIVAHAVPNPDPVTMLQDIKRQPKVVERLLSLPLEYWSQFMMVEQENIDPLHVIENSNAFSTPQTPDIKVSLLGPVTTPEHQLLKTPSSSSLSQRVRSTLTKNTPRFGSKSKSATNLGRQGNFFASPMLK
TEST_DESCRIPTION: blockers of MgcRacGAP-driven Rac1 GTP hydrolysis – biochemical, ADP Hunter fluorescence, primary and confirmatory, confirmation (AID 624330);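 note: fluorescence reports GDP produced by GAP-driven GTP hydrolysis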
PROTOCOL_CONDITIONS: MgcRacGAP-stimulated Rac1 GTP hydrolysis, at 30 µM, stronger effect = higher value, GST-tagged Rac1 F28L mutant substrate
About 2,100 (0.62%) of roughly 340,000 compounds were called active. Not all results are given here. Entries with a potency or affinity are not part of this list.
REPORTED_ENDPOINT: inhibition (%)
Your answer should be a plain number; it is taken to be in %.

Reference set (2 entries):
>  <COMPOUND>
CCc1nnc(NC(=O)CSc2nnc3ncccn23)s1

>  <inhibition [%]>
4.86

$$$$
>  <COMPOUND>
COc1cccc(C(=O)C2CCCN(C(=O)c3ccc(C#CC(C)(C)O)cc3)C2)c1 (stereo unspecified)

>  <inhibition [%]>
1.51

$$$$

Problem: Determine reported inhibition for CSc1cc(SC)ncn1 ; test system: Rac GTPase-activating protein 1 (Homo sapiens) (UniProt Q9H0H5).
Result: 1.8

Problem: Determine reported inhibition for CCC(C)N(CCNC(=O)c1ccc2c(c1)NC(=O)c1ccccc1S2)C1CCCCC1 (stereo unspecified) ; test system: Rac GTPase-activating protein 1 (Homo sapiens) (UniProt Q9H0H5).
Result: 3.06

Problem: Determine reported inhibition for CC(=O)Nc1cc(-c2ccccc2)nn1Cc1ccc(Cl)cc1 ; test system: Rac GTPase-activating protein 1 (Homo sapiens) (UniProt Q9H0H5).
Result: -1.04

Problem: Determine reported inhibition for CCC(=O)Nc1cccc(NC(=O)CSc2nc3c(c(=O)n(C)c(=O)n3C)n2C)c1 ; test system: Rac GTPase-activating protein 1 (Homo sapiens) (UniProt Q9H0H5).
Result: 7.76

----------
Item-by-item account of inhibition
SYSTEM: Rac GTPase-activating protein 1 (Homo sapiens) (UniProt Q9H0H5)
TEST_DESCRIPTION: blockers of MgcRacGAP-driven Rac1 GTP hydrolysis – biochemical, ADP Hunter fluorescence, primary and confirmatory, confirmation (AID 624330);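 note: fluorescence reports GDP produced by GAP-driven GTP hydrolysis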
PROTOCOL_CONDITIONS: MgcRacGAP-stimulated Rac1 GTP hydrolysis, at 30 µM, stronger effect = higher value, GST-tagged Rac1 F28L mutant substrate
The whole screen tested about 340,000 compounds, of which about 2,100 (0.62%) were called active. Not all results are given here. Entries with a potency or affinity are not part of this list.
Your answer should be a plain number; it is taken to be in %.

Reference set (3 entries):
>  <COMPOUND>
Cc1ccc(NC(=O)c2ccc(-n3cccn3)c([N+](=O)[O-])c2)cc1

>  <inhibition [%]>
6.01

$$$$
>  <COMPOUND>
Cc1cc(Br)cc(C)c1NC(=S)NC(=O)CC(C)C

>  <inhibition [%]>
7.74

$$$$
>  <COMPOUND>
c1cncc(-c2nnc3n2N=C(c2cccs2)CS3)c1

>  <inhibition [%]>
7.37

$$$$

Problem: Give recorded inhibition. Fc1ccc(C2=Nn3c(nnc3-c3ccco3)SC2)cc1
Result: 1.81

Problem: Give recorded inhibition. CCC(=O)OCc1cc(=O)oc2ccc3ccccc3c12
Result: 9.78

Problem: Give recorded inhibition. O=[N+]([O-])c1ccc(/C=N/n2c(-c3cccnc3)n[nH]c2=S)cc1
Result: 14.5

Problem: Give recorded inhibition. Cc1nnc(C)n1/N=C/c1cccs1
Result: 17.6

Problem: Give recorded inhibition. Cc1ccccc1C(=O)NC(=S)Nc1ccccc1N1CCCC1
Result: 13.5

Problem: Give recorded inhibition. c1ccc(C2=Nn3c(nnc3-c3ccco3)SC2)cc1
Result: 18

Problem: Give recorded inhibition. COc1ccc(NC(=O)C2CCN(S(=O)(=O)c3c(C)noc3C)CC2)cc1
Result: 8.66

Problem: Give recorded inhibition. Cc1c(C(=O)Nc2ccc(S(=O)(=O)Nc3ncccn3)cc2)oc2ccc(F)cc12
Result: -2.01

Problem: Give recorded inhibition. S=c1[nH]nc(-c2cccnc2)n1/N=C/c1ccc(Br)s1
Result: 8.12

Problem: Give recorded inhibition. O=C(c1scc2c1CCCC2)N1CCOCC1
Result: 5.17

----------
SYSTEM: Rac GTPase-activating protein 1 (Homo sapiens)
TEST_DESCRIPTION: blockers of MgcRacGAP-driven Rac1 GTP hydrolysis – biochemical, ADP Hunter fluorescence, primary and confirmatory, confirmation (AID 624330);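 note: fluorescence reports GDP produced by GAP-driven GTP hydrolysis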
PROTOCOL_CONDITIONS: MgcRacGAP-stimulated Rac1 GTP hydrolysis, at 30 µM, stronger effect = higher value, GST-tagged Rac1 F28L mutant substrate
Screen size: about 340,000 compounds; about 2,100 (0.62%) were called active. These entries were drawn from the full list. Potency and affinity values are given separately.
Item-by-item account of inhibition

>  <MOLECULE>
N[C@@H](Cc1ccc(O)c(O)c1)C(=O)O

>  <SYSTEM>
Rac GTPase-activating protein 1 (Homo sapiens)

>  <inhibition>
6.56% (inactive)

$$$$
>  <MOLECULE>
O=C(Cc1ccc(F)cc1)NC(Cc1c[nH]c2ccccc12)C(=O)O (stereo unspecified)

>  <SYSTEM>
Rac GTPase-activating protein 1 (Homo sapiens)

>  <inhibition>
-3.39% (inactive)

$$$$
>  <MOLECULE>
O=C(CCc1nc2ccccc2[nH]1)N1CCN(C(=O)c2ccco2)CC1

>  <SYSTEM>
Rac GTPase-activating protein 1 (Homo sapiens)

>  <inhibition>
-2.14% (inactive)

$$$$

Problem: Give recorded inhibition. O=C(O)C1Nc2c(C(F)(F)F)ccc(Cl)c2C2C=CCC12 (stereo unspecified)
Result: -3.26% (inactive)

Problem: Give recorded inhibition. CC(C)(C)c1cc(C(=O)N/N=C/c2ccccc2O)n(-c2ccccc2)n1
Result: 2.15% (inactive)

Problem: Give recorded inhibition. CC(C)NC(=O)N(C)C[C@H]1Oc2ccc(NS(=O)(=O)c3cn(C)cn3)cc2C(=O)N([C@H](C)CO)C[C@@H]1C
Result: 12.3% (inactive)

Problem: Give recorded inhibition. O=C(N/N=C/c1ccc(C(F)(F)F)cc1)c1ccc(O)cc1
Result: 8.28% (inactive)
